- Test system: Wnt5a (protein binding on small-molecule microarray)
- procedure_summary: Wnt5a binders on small-molecule microarray, primary screen, biophysical, 635/667 nm fluorescence (AID 1142);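 note: fluorescence read at 667 nm with signal to noise per printed feature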
- measurement_parameters: 635 nm fluorescence, higher = more signal
measured_metric: composite z-score
Answer with the value's number alone.

CC(C)C[C@@H]1NC(=O)[C@@H]2C[C@H](C(=O)NCCCCCNC(=O)CS)[C@H](c3cccc(OCCO)c3)N2C1=O | 0.257
COc1ccc([Si](C)(C)[C@H]2[C@H](CC(=O)N(CCO)Cc3ccccc3)O[C@@]3(C(=O)N(Cc4ccc(N5CCC5=O)cc4)c4ccccc43)[C@@H]2C)cc1 | -0.161
C=CCC(OC(C)=O)[C@@H]1[C@@H](N(Cc2cccc3ccccc23)C(=O)Cc2ccc(OC)cc2)c2cc(OCCCO)ccc2N1C(=O)Cc1ccc(OC)cc1 (some centres not stated) | -0.143

Next item in the queue.
Q: Answer with composite z-score of "C[N+](C)(C)CCCC[C@@H]1NC(=O)[C@H]2C[C@@H](C(=O)NCCCCCN)[C@@H](c3cccc(OCCO)c3)N2C1=O" measured for Wnt5a (protein binding on small-molecule microarray).
A: 0.165
